- System: OVCAR3 cells
- Test Protocol: MTT proliferation assay, OVCAR3;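 also: compound given as an 8- or 10-point series, one day after plating, with exposure covering roughly 3-4 cell doublings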
- Type: cell-based
- Measurement Conditions: 5 days compound exposure, 1:3 serial dilution starting at 10 μM
*1 amine or outer side, *2 acyl side, *3 side chain or, on linkers, in order; H or OH if unused. Where a SMILES comes first, the peptide text is derived from it. Bridges are numbered along the chain shown (N, C = ends). [ ]: non-standard residue; d: D form. The star is where a group is joined. X187 = CC(=O)N1CC=C(c2ccc(Cl)cc2C[C@@H](C(=O)[*:2])N(C)[*:1])C1; NMehhhLys(Me) = CN([C@@H](CCCCCCCN(C)[*:3])C(=O)[*:2])[*:1]; cBuCO(3,3-F2-1-CF3) = O=C(C1(C(F)(F)F)CC(F)(F)C1)*; Pro(trans-4-F) = O=C(O)[C@@H]1C[C@@H](F)CN1; Gly(cPr) = N[C@H](C(=O)O)C1CC1
Value Kind: GI50

CC(C)C[C@@H]1NC(=O)[C@@H](N(C)C(=O)[C@@H](NC(=O)[C@@H]2C[C@@H](F)CN2C(=O)C2(C(F)(F)F)CC(F)(F)C2)C2CC2)CC=CCCCCN(C)C(=O)[C@H](Cc2cc(F)ccc2C2=CCCC2)N(C)C1=O = 790 nM

Read the next record carefully.
According to the records, this compound CC(=O)N1CC=C(c2ccc(Cl)cc2C[C@H]2C(=O)N(C)CCCCCCC[C@H](N(C)C(=O)[C@@H](NC(=O)[C@@H]3C[C@@H](F)CN3C(=O)C3(C(F)(F)F)CC(F)(F)C3)C3CC3)C(=O)N[C@@H](CC(C)C)C(=O)N2C)C1 [Example 308] ({cBuCO(3,3-F2-1-CF3)}-[Pro(trans-4-F)][Gly(cPr)][NMehhhLys(Me)]L[X187]; lactam 3-C) displays GI50 of 10 nM
